Tested on: Tov112D
Experiment: Primary qHTS to identify gynecologic anti-cancer compounds using libraries of approved drugs and bioactive compounds (AID 1345084); also: nearly all actives have a fitted effect of over 55% in size
Conditions: Gynecologic cancer cell panel viability, ATPlite luminescence, 48 h; series mostly up to 57.5 µM
Results filed as inconclusive are left out. Calls of active or inactive are those of the source. Calls follow the shape of the dose curve; as a rule, active = well fitted cell-killing curve with a large enough effect; inconclusive = small, poorly fitted or top-dose-only effect, or effect the other way; inactive = flat fitted curve, though single readings scatter. Where a SMILES comes first, the peptide text is derived from it. [ ]: non-standard residue; d: D form. dPhe(4-Cl) = N[C@H](Cc1ccc(Cl)cc1)C(=O)O; d2Nal = N[C@H](Cc1ccc2ccccc2c1)C(=O)O; dCit = NC(=O)NCCC[C@@H](N)C(=O)O; d3Pal = N[C@H](Cc1cccnc1)C(=O)O
Just give me one of these, please: 1 (active), -1 (inactive)

Problem: Outcome? CC(C)(O)c1ccc2c(c1)C(O)C[C@H]1[C@](C)(C(=O)O)CCC[C@]21C (some centres not stated)
Result: -1

Problem: Outcome? CC(=O)N[C@H](Cc1ccc2ccccc2c1)C(=O)N[C@H](Cc1ccc(Cl)cc1)C(=O)N[C@H](Cc1cccnc1)C(=O)N[C@@H](CO)C(=O)N[C@@H](Cc1ccc(O)cc1)C(=O)N[C@H](CCCNC(N)=O)C(=O)N[C@@H](CC(C)C)C(=O)N[C@@H](CCCN=C(N)N)C(=O)N1CCC[C@H]1C(=O)N[C@H](C)C(N)=O (Ac-[d2Nal][dPhe(4-Cl)][d3Pal]SY[dCit]LRP[dA]-NH2)
Result: -1

Problem: Outcome? `C=C[C@@H]1[C@H](O[C@@H]2O[C@H](CO)[C@@H](O)[C@H](O)[C@H]2O)OC=C(C(=O)O)[C@H]1CCOC(=O)/C=C/c1ccc(O)c(O)c1`
Result: -1

Problem: Outcome? COC(=O)CC(O)CC(O)/C=C/c1c(C)ccc2c1C(O)CC(C)C2 (configuration not stated)
Result: -1

Problem: Outcome? C=C(C)C1CC[C@]2(C(=O)O)CC[C@]3(C(=O)O)[C@H](CCC4[C@@]5(C)CC[C@H](O)C(C)(C)C5CC[C@]43C)C12 (some centres not stated)
Result: -1

Continuing:
Problem: Outcome? `CCN(CC)CCN(Cc1ccc(-c2ccc(C(F)(F)F)cc2)cc1)C(=O)Cn1c(SCc2ccc(F)cc2)nc(=O)c2c1CCC2`
Result: 1

Problem: Outcome? COc1c2c(c(C)c3c1C(=O)OC3)O[C@@]1(C)CCC3(C(C)(C)O)OC(=O)CC[C@]3(C)[C@H]1C2 (some centres not stated)
Result: -1

Problem: Outcome? `C[C@H](Nc1ncnc2nc[nH]c12)c1cc2ccc(F)cc2nc1-c1ccccn1`
Result: -1

Problem: Outcome? `CC(=O)N1CCN(C(=O)Cc2ccc(Nc3ncc(F)c(Nc4ccc(C(=O)Nc5ccccc5Cl)cc4)n3)cc2)CC1`
Result: 1

Problem: Outcome? C=CC1C(OC2OC(CO)C(O)C(O)C2O)OC=C2C(=O)N3C(C(=O)O)Cc4c([nH]c5ccccc45)C3CC21 (configuration not stated)
Result: -1

Problem: Outcome? `Cc1cc(C(=O)Nc2cccc(C(=O)Nc3cccc(C(F)(F)F)c3)c2)on1`
Result: -1

Problem: Outcome? `CC(C)c1cc(C(=O)N2CC[C@@H](NC(=O)C3CC3)C2)n[nH]1`
Result: -1

###

Test system: Tov112D
Test: Primary qHTS to identify gynecologic anti-cancer compounds using libraries of approved drugs and bioactive compounds (AID 1345084); also: nearly all actives have a fitted effect of over 55% in size
Settings: Gynecologic cancer cell panel viability, ATPlite luminescence, 48 h; series mostly up to 57.5 µM
Results filed as inconclusive are left out. Calls of active or inactive are those of the source. Calls follow the shape of the dose curve; as a rule, active = well fitted cell-killing curve with a large enough effect; inconclusive = small, poorly fitted or top-dose-only effect, or effect the other way; inactive = flat fitted curve, though single readings scatter.
Just give me one of these, please: active, inactive

Problem: Outcome? `CC1(C)[C@@H](O)CC[C@]2(C)[C@H]3CC=C4[C@@H]5C[C@](C)(C(=O)O)CC[C@]5(C)CC[C@@]4(C)[C@]3(C)CC[C@@H]12`
Result: inactive

Problem: Outcome? `C/C=C1\[C@H](O[C@@H]2O[C@H](CO)[C@@H](O)[C@H](O)[C@H]2O)OC=C(C(=O)OC)[C@H]1CC(=O)OC[C@H]1O[C@@H](OCCc2ccc(O)cc2)[C@H](O)[C@@H](O)[C@@H]1O`
Result: inactive

Problem: Outcome? CC(=O)OC1CC2(C)C3=CCC4(C)C5C(O)C(O)C(C(C)C)C5(C)CCC4(C)C3CCC2C(C)(C)C1OC1OC(CO)C(O)C(O)C1O (configuration not stated)
Result: inactive

Problem: Outcome? C=C(C(=O)O)C1CC2=C(C)CCCC2(C)C[C@@H]1O (some centres not stated)
Result: inactive

Problem: Outcome? CCC(COC)n1nnc2c(Nc3ccc(OC)cc3C)nc(C)cc21 (configuration not stated)
Result: inactive

Problem: Outcome? O=C(CC1C(=O)Nc2ccccc21)OC[C@H]1O[C@@H](OCCc2ccc(O)cc2)[C@H](O)[C@@H](O)[C@@H]1O (some centres not stated)
Result: inactive

Problem: Outcome? CC1OC2OC(=O)C3(C)CC4=C(CO)C5=C(CC(=O)C4(C)C(C1=O)C23)C(C)(C)OC(=O)C5 (configuration not stated)
Result: inactive

Problem: Outcome? CC1(C)CC[C@]2(C(=O)O[C@@H]3O[C@H](CO)[C@@H](O)[C@H](O)[C@H]3O)CC[C@]3(C)C(=CCC4[C@@]5(C)C[C@@H](O)[C@H](O)C(C)(C)C5CC[C@]43C)C2[C@@H]1O (some centres not stated)
Result: inactive

Problem: Outcome? COc1cc(C2c3cc4c(c(O)c3CC(CO)C2C(=O)O)OCO4)cc(OC)c1O (configuration not stated)
Result: active

Problem: Outcome? CC1CCC2(CO)C(C(=O)O)=CCCC2C1(C)CCc1ccoc1 (configuration not stated)
Result: inactive

Problem: Outcome? CC(=O)OCC1(O)CCC2C(COC3OC(CO)C(O)C(O)C3OC(=O)/C=C/c3ccc(O)cc3)=COC(OC(=O)CC(C)C)C21 (configuration not stated)
Result: inactive

Problem: Outcome? `CC(C)C(=O)OC[C@H]1O[C@H](O[C@H]2O[C@H](CO)[C@@H](O)[C@H](O)[C@H]2O)[C@H](O)[C@@H](O)[C@@H]1O`
Result: inactive

Problem: Outcome? `c1cc(OCCCN2CCCCC2)ccc1CN1CCCCC1`
Result: inactive

###

Assignment: determine reported activity change, negative = inhibition for the given molecules.
Biological target: Guanidinoacetate N-methyltransferase (Homo sapiens) (UniProt Q14353)
Experiment: Confirmatory Screen for Target Class Profiling of Small Molecule Inhibitors of Methyltransferases (AID 1745852); also: % is scaled to controls: 0 for no effect and ±100 for the full control effect
Details: MTase-Glo luminescence, SAH detection, recombinant enzyme; at 57.3 µM (top of the series) unless noted
Answers are plain numbers, in % [at 29.8 µM].

Problem: Could you share which activity change, negative = inhibition value was measured for CC(O)(CC(=O)O)CC(=O)OCc1ccc(O[C@@H]2O[C@H](CO)[C@@H](O)[C@H](O)[C@H]2O)cc1 (stereo not given in full) ?
Result: 2.07

Problem: Could you share which activity change, negative = inhibition value was measured for CC(=O)OC/C=C(\C)C(CC1C(C)=C(OC(C)=O)C(=O)C2C(C)(C)C(O)CCC12C)OC(C)=O (stereo not given) ?
Result: -2.29

Problem: Could you share which activity change, negative = inhibition value was measured for `COc1cc(C(=O)OC[C@H]2O[C@@H](Oc3ccccc3/C=C/C(=O)O)[C@H](O)[C@@H](O)[C@@H]2O)cc(OC)c1OC` ?
Result: -3.16

Problem: Could you share which activity change, negative = inhibition value was measured for `O=C(/C=C/c1ccccc1)OC[C@]12O[C@H]1[C@@H](O)[C@@H]1C=CO[C@@H](O[C@@H]3O[C@H](CO)[C@@H](O)[C@H](O)[C@H]3O)[C@@H]12` ?
Result: -7.11

Problem: Could you share which activity change, negative = inhibition value was measured for `C=C[C@H]1[C@H](O[C@@H]2O[C@H](CO)[C@@H](O)[C@H](O)[C@H]2O)OC=C(C(=O)OC)[C@H]1CCOC(=O)c1cc(O)c(O)c(O)c1` ?
Result: 1.49

Need activity change, negative = inhibition for each of these molecules.
1. C[C@]12C[C@@H](O)[C@@H]3C[C@@]1(O[C@@H]1O[C@H](CO)[C@@H](O)[C@H](O)[C@H]1O)[C@]3(COC(=O)c1ccccc1)C(=O)O2
2. COc1ccc(CCO[C@@H]2O[C@H](CO[C@@H]3OC[C@H](O)[C@H](O)[C@H]3O)[C@@H](O)[C@H](O)[C@H]2O)cc1

Result:
1. 0.459
2. 2.09

###

Experiment: Primary qHTS for inhibitors of nuclear receptor binding SET domain protein 2 (NSD2) in an RCH-ACV wild type WT cells (2C) (AID 1645877); also: nearly all actives have a fitted effect of over 70% in size; also: potency is read from the fitted curve at half-maximal effect
Conditions: RCH-ACV (leukaemia line) NSD2 WT (2C) viability, CellTiter-Glo, 72 h; series mostly up to 44.9 µM
Results filed as inconclusive are left out. Activity calls are given as the source filed them. The call rests on the fitted dose curve; in most records, active means well fitted inhibition curve with a large enough effect; inconclusive means small, poorly fitted or top-dose-only effect; inactive means no such curve, though single readings can be large or run the other way.
measured property: Potency

Known results for compounds:
Problem: Could you share which Potency value was measured for CC(=O)C=C=C1C(C)(C)CC(O[C@@H]2O[C@H](CO)[C@@H](O)[C@H](O)[C@H]2O)CC1(C)O (some centres not stated) ?
Result: inactive

Problem: Could you share which Potency value was measured for CC1=CC(=O)C2(OC3OC(C)C(O)C(OC(=O)/C=C/c4ccccc4)C3O)C=COC(OC3OC(CO)C(O)C(O)C3O)C12 (configuration not stated) ?
Result: inactive

Problem: Could you share which Potency value was measured for CC(C)C(NC(=O)c1ccc2ccccc2n1)C(=O)NC(CC(=O)O)C(=O)COc1c(F)cccc1F (configuration not stated) ?
Result: inactive

Problem: Could you share which Potency value was measured for `C=C[C@@](C)(O)CC/C=C(\C)C(=O)O[C@@H]1[C@@H]2O[C@]2(C)[C@H]2[C@H](O[C@@H]3O[C@H](CO)[C@@H](O)[C@H](O)[C@H]3O)OC=C[C@@]12O` ?
Result: inactive

Problem: Could you share which Potency value was measured for COc1cc(C2c3cc4c(c(O)c3CC(CO)C2C(=O)O)OCO4)cc(OC)c1O (configuration not stated) ?
Result: 2 µM (active)

Need Potency for each of these compounds.
1. CC(NC(=O)CCc1nc2ccccc2c(=O)[nH]1)c1ccccc1 (configuration not stated)
2. CCc1cnn2c(NCc3ccc[n+]([O-])c3)cc(N3CCCCC3CCO)nc12 (configuration not stated)
3. Oc1ccc(CNc2ccccc2F)c2cccnc12
4. CCOC(=O)c1cc(C#N)c(N2CCC(C(=O)NS(=O)(=O)Cc3ccccc3)CC2)nc1C
5. O=C(O)c1ccc(OC2OC(CO)C(O)C(O)C2O)cc1 (configuration not stated)
6. C=C1C(O)CC2C(C(=O)O)=COC(O[C@@H]3O[C@H](COC(=O)/C=C/c4ccc(O)cc4)[C@@H](O)[C@H](O)[C@H]3O)C12 (some centres not stated)
7. Cc1ccc(NC(=O)Nc2cc(C(F)(F)F)ccc2F)cc1Nc1ccc2c(c1)NC(=O)/C2=C\c1ccc[nH]1

Result:
["inactive", "0.0092 µM (active)", "4.09 µM (active)", "inactive", "inactive", "inactive", "20.5 µM (active)"]
